// provenance: paper PMC6724035

# METHOD NOTES: in vivo
# CONDITION SET: female, BALB/c nu/nu, mouse, tumour and muscle, iv, total radioactivity
Where a SMILES comes first, the peptide text is derived from it. [ ]: non-standard residue; d: D form. Tyr(3-I) = N[C@@H](Cc1ccc(O)c(I)c1)C(=O)O; Sta = CC(C)C[C@H](N)[C@@H](O)CC(=O)O; AEEA = NCCOCCOCC(=O)O
EXPERIMENTAL ENDPOINT: tissue to tissue ratio at 3 h

Input: Hello, please tell me recorded tissue to tissue ratio at 3 h for this one: CC(C)C[C@H](NC(=O)C[C@H](O)[C@H](CC(C)C)NC(=O)[C@H](Cc1c[nH]cn1)NC(=O)CNC(=O)[C@@H](NC(=O)[C@H](C)NC(=O)[C@H](Cc1c[nH]c2ccccc12)NC(=O)[C@H](CCC(N)=O)NC(=O)[C@@H](Cc1ccccc1)NC(=O)COCCOCCNC(=O)[C@@H](N)Cc1ccc(O)c(I)c1)C(C)C)C(N)=O [[^125I]I-Tyr-PEG2-RM26] (H-[Tyr(3-I)][AEEA][dF]QWAVGH[Sta]L-NH2)
Output: 3.7

====

# METHOD NOTES: in vivo
# CONDITION SET: mouse, stomach, iv, 40 pmol, Uptake, stomach, 3 h after injection; 40 pmol i.v.
Where a SMILES comes first, the peptide text is derived from it. [ ]: non-standard residue; d: D form. Tyr(3-I) = N[C@@H](Cc1ccc(O)c(I)c1)C(=O)O; Sta = CC(C)C[C@H](N)[C@@H](O)CC(=O)O; AEEA = NCCOCCOCC(=O)O
EXPERIMENTAL ENDPOINT: tissue uptake at 3 h (%ID/g)
Write the answer as a number in %ID/g, unit excluded.

Input: Provide measured tissue uptake at 3 h value, entry: CC(C)C[C@H](NC(=O)C[C@H](O)[C@H](CC(C)C)NC(=O)[C@H](Cc1c[nH]cn1)NC(=O)CNC(=O)[C@@H](NC(=O)[C@H](C)NC(=O)[C@H](Cc1c[nH]c2ccccc12)NC(=O)[C@H](CCC(N)=O)NC(=O)[C@@H](Cc1ccccc1)NC(=O)COCCOCCNC(=O)[C@@H](N)Cc1ccc(O)c(I)c1)C(C)C)C(N)=O [[^125I]I-Tyr-PEG2-RM26] (H-[Tyr(3-I)][AEEA][dF]QWAVGH[Sta]L-NH2)
Output: 4.6

====

# METHOD NOTES: in vivo
# CONDITION SET: female, BALB/c nu/nu, mouse, tumour and salivary gland, iv, total radioactivity
Where a SMILES comes first, the peptide text is derived from it. [ ]: non-standard residue; d: D form. Tyr(3-I) = N[C@@H](Cc1ccc(O)c(I)c1)C(=O)O; Sta = CC(C)C[C@H](N)[C@@H](O)CC(=O)O; AEEA = NCCOCCOCC(=O)O
EXPERIMENTAL ENDPOINT: tissue to tissue ratio at 3 h
API doc: respond with a numeric literal and nothing else, no unit.

Input: State, in one line, measured tissue to tissue ratio at 3 h of CC(C)C[C@H](NC(=O)C[C@H](O)[C@H](CC(C)C)NC(=O)[C@H](Cc1c[nH]cn1)NC(=O)CNC(=O)[C@@H](NC(=O)[C@H](C)NC(=O)[C@H](Cc1c[nH]c2ccccc12)NC(=O)[C@H](CCC(N)=O)NC(=O)[C@@H](Cc1ccccc1)NC(=O)COCCOCCNC(=O)[C@@H](N)Cc1ccc(O)c(I)c1)C(C)C)C(N)=O [[^125I]I-Tyr-PEG2-RM26] (H-[Tyr(3-I)][AEEA][dF]QWAVGH[Sta]L-NH2)
Output: 1.2
